target: RhlR (L69K) (Pseudomonas aeruginosa, UniProt P54292, L69K)
assayOverview: E. coli prhlA-luxCDABE luciferase reporter assay
runParameters: pqsE co-expressed
measurementLabel: EC50 (µM)
Supply the numeric figure in µM, leaving out any unit text.

Problem: // fetch RhlR (L69K) (Pseudomonas aeruginosa, UniProt P54292, L69K) EC50 for `CCCC(=O)N[C@H]1CCOC1=O`
Solution: 13.2

====

target: RhlR (T58F) (Pseudomonas aeruginosa, UniProt P54292, T58F)
Construct: expressed in transfected cells; host or cells: E. coli carrying pBAD-A-rhlR mutant, pCS26-prhlA-luxCDABE and pACYC-pqsE or empty pACYC
assayOverview: E. coli prhlA-luxCDABE luciferase reporter assay
Type: cell-based, Escherichia coli
runParameters: Vector (no pqsE)
So I've got a bunch of compounds here, and I need their pEC50 values.
Just so you know, pEC50 here is -log10 of the concentration in molar units; reply with that number alone.

Problem: Reported pEC50 for `CCCCCC(=O)N[C@H]1CCOC1=O` : what is it?
Solution: 6.24

Problem: Can you check `CCCC(=O)N[C@H]1CCOC1=O` next?
Solution: 5.49
